Test system: SNB-78 CNS
Test: NCI tumour cell line growth inhibition, 48 h
readout: TGI

Some entries whose results are on file:
O=C(Nc1ccc(Cl)cc1Cl)C1C(=O)N(c2ccc(Cl)cc2Cl)C(=O)/C1=N\Nc1ccc([N+](=O)[O-])cc1[N+](=O)[O-] (configuration not stated)    > 100 µM
COc1ccccc1/C=C(\C#N)c1ccccc1    > 100 µM
CC(C)(C)OC1=C(OC(C)(C)C)C(O)(c2ccccc2)C1=O (configuration not stated)    > 100 µM

Asked: Return reported TGI; argument: COC1=C2CC(C)CC(OC)C(O)C(C)/C=C(\C)C(OC(N)=O)C(OC)/C=C\C=C(/C)C(=O)NC(=C(C=NC(C)(C)C)C1=O)C2=O (configuration not stated)
Given back: 46.2 µM

Asked: Return reported TGI; argument: CC1(C)CCC[C@@]2(C)C1CCC1(C)C(CCc3ccoc3)/C(=C/OS(=O)(=O)O)CCC12 (some centres not stated) (tested in a mixture with another compound)
Given back: > 100 µM

Asked: Return reported TGI; argument: CC[C@]1(O)C[C@H]2CN(CCc3c([nH]c4ccccc34)[C@@](C(=O)OC)(c3cc4c(cc3OC)N(C=O)[C@H]3[C@@](O)(C(=O)OC)[C@H](OC(C)=O)[C@]5(CC)C=CCN6CC[C@]43[C@@H]65)C2)C1
Given back: 109 µM

Asked: Return reported TGI; argument: COc1cc(/C=C/c2ccncc2)cc(OC)c1OC
Given back: > 100 µM

Asked: Return reported TGI; argument: Cc1ccc(NC(=O)c2cc3cc(N=Nc4ccc(Br)cc4)ccc3oc2=O)cc1
Given back: > 100 µM

Asked: Return reported TGI; argument: N/C(=N\N=C/c1ccccc1O)NO
Given back: > 96.6 µM

Asked: Return reported TGI; argument: CCNC(C)Cc1ccccc1 (configuration not stated)
Given back: > 100 µM

Asked: Return reported TGI; argument: Cc1ccccc1C(=O)c1c(O)c2c(c(O)c1Br)CCCC2
Given back: 47.5 µM

Asked: Return reported TGI; argument: CCc1ccc(N=Cc2cc(OC)c(OC)c(OC)c2)cc1
Given back: > 100 µM

Cited source: PubChem BioAssay (NCI)
